target: Cytochrome P450 2C9 (Homo sapiens, UniProt P11712)
Sequence (P11712 whole entry): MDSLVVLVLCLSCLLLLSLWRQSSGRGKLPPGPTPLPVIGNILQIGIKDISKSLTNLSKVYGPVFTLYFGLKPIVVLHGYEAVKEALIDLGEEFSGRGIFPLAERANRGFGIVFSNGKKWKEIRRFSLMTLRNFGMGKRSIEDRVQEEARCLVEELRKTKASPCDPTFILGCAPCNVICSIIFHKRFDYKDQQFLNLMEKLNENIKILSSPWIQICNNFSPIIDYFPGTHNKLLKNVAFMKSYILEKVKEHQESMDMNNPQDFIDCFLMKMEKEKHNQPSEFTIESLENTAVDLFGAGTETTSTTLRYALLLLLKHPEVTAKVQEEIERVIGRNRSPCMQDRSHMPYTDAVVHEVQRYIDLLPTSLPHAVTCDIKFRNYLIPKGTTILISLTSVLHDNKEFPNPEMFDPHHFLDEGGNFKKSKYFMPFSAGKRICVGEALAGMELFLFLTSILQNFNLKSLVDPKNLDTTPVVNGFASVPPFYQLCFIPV
MEASURED PARAMETER: AC50

Solved entries (count: 3):
# SMILES STRING, MEASURED VALUE
rows = [
    ("CCCNC(=O)OC[C@@H]1O[C@H](CCO/N=C(\\C)CCN2CCCCc3nc(C)c(C)cc32)C=C[C@@H]1Oc1ccc(OC)cc1", "3.98 µM (inconclusive)"),
    ("Cc1ccccc1CS(=O)(=O)CCC(=O)NCCCN1CCN(c2ccccc2F)CC1", "5.62 µM (inconclusive)"),
    ("COc1ccc(OC)c(N(CC(=O)N2CCc3ccccc3C2)S(C)(=O)=O)c1", "12.6 µM (inconclusive)"),
]

Note: attention shifts to another entry.
For the compound shown here, CSc1cc(C)nc(NC(C)=O)n1 , give the reported AC50.
3.16 µM (inconclusive)
